Listing: log10 of EC50 of selected molecules
- EXPERIMENTAL_SYSTEM: UniProt:P35557
- Sequence (P35557 whole entry): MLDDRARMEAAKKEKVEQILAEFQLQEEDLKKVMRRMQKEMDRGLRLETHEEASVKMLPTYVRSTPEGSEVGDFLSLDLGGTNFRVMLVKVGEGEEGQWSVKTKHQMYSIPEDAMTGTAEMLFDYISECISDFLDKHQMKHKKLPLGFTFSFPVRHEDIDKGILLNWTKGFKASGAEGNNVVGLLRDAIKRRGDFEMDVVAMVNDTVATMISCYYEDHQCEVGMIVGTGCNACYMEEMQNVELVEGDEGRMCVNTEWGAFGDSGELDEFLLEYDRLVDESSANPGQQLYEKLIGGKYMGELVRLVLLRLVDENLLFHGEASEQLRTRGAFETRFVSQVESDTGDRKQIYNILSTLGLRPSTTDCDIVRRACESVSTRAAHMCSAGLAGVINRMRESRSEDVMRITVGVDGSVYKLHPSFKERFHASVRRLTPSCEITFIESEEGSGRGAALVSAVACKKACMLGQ
- ASSAY_EXPLANATION: Activation of glucokinase
Response schema: value (number) is log10 of EC50 in units of nM.

| SUBSTANCE_SMILES | EXPERIMENTAL_SYSTEM | log10 of EC50 |
| --- | --- | --- |
| O=C(Nc1nccs1)c1nc(Sc2nnc[nH]2)ccc1Sc1cccc(F)c1 | UniProt:P35557 | 1.60 |

Q) // returns reported log10 of EC50 for input COc1cccc(Sc2ccc(Sc3nnc[nH]3)nc2C(=O)Nc2nccs2)c1
A) 2.20

Q) Now give it for O=C(Nc1nccs1)c1nc(Sc2nnc[nH]2)ccc1Sc1ccccc1F too.
A) 1.76

Q) Follow-up item: COc1ccc(Sc2ccc(Sc3nnc[nH]3)nc2C(=O)Nc2nccs2)cc1
A) 2.08

Q) Could you do the same for Cc1csc(NC(=O)c2cc(Sc3nncn3C)ccc2Sc2ccc(F)cc2)n1 , please?
A) 2.99

Q) Entry to check: Cn1cnnc1Sc1ccc(Sc2ccc(F)cc2)c(C(=O)Nc2nccs2)n1
A) 2.08

Q) Also Cc1csc(NC(=O)c2nc(Sc3nncn3C)ccc2Sc2ccc(F)cc2)n1 , if possible.
A) 2.40

Q) Same read-out for O=C(Nc1nccs1)c1nc(Sc2nnc[nH]2)ccc1Sc1ccc(C(F)(F)F)cc1 ?
A) 2.20

Q) Another molecule to look at: Cc1cccc(Sc2ccc(Sc3nnc[nH]3)nc2C(=O)Nc2nccs2)c1
A) 2.00

Q) // repeat for O=C(Nc1nccs1)c1nc(Sc2nnc[nH]2)ccc1Sc1ccccc1 and report
A) 1.58

---

Below, each of the molecules is paired with its reported Fh value.
- ASSAY_EXPLANATION: Hepatic availability in rat hepatocytes
- Assay type: ADME, cell-based, Hepatocyte
Could you give me the number in %? Just the number is fine.

Please review the following examples before continuing.
| SUBSTANCE_SMILES | Fh [%] |
| --- | --- |
| O=C(Nc1nccs1)c1nc(Sc2nnc[nH]2)ccc1Sc1ccc(F)cc1 | 100 |
| O=C(Nc1nccs1)c1nc(Sc2nnc[nH]2)ccc1Sc1ccccc1F | 71 |
| O=C(Nc1nccs1)c1nc(Sc2nnc[nH]2)ccc1Sc1cccc(F)c1 | 89 |
| COc1ccc(Sc2ccc(Sc3nnc[nH]3)nc2C(=O)Nc2nccs2)cc1 | 35 |
| O=C(Nc1nccs1)c1nc(Sc2nnc[nH]2)ccc1Sc1ccccc1 | 77 |

Now look at this entry.
Q) I have this molecule here, Cc1cccc(Sc2ccc(Sc3nnc[nH]3)nc2C(=O)Nc2nccs2)c1 , and I need its recorded Fh.
A) 69

---

- ASSAY_EXPLANATION: AUC (0 to infinity) in rat at 1 mg/kg, iv
- Type: ADME, organism-based
- Parameters: dose 1 mg/kg, route intravenous, time infinity
- RUN_PARAMETERS: plasma
VALUE_TYPE: AUC(0-inf)
Put your answer as a value accompanied by its unit after it.

Q) For the compound shown here, O=C(Nc1nccs1)c1nc(Sc2nnc[nH]2)ccc1Sc1ccc(F)cc1 , give the reported AUC(0-inf).
A) 4.9 µM·h

Value source: ChEMBL document CHEMBL1151869
